# Method summary: qHTS assay to identify small molecule antagonists of the retinoic acid receptor (RAR) signaling pathway (AID 1159552; also: nearly all actives have a fitted effect of over 50% in size)
# Condition parameters: C3RL4 RARE luciferase reporter, retinol-stimulated, 6 h; series mostly up to 92.4 µM
Records with an inconclusive call do not appear. Active and inactive are the calls of the source. Calls follow the shape of the dose curve; as a rule, active = well fitted inhibition curve with a large enough effect in the repeat runs; inconclusive = weak or mixed curves, or effect the other way; inactive = no such curve, though single readings can be large or run the other way.
Outcome codes: TRUE (active), FALSE (inactive)

                                    molecule  assigned_class
 0                       COc1ccc(OC)c(C=O)c1           FALSE
 1  C[CH2][Hg][N]1C(=O)C2C(C1=O)C1(Cl)C(Cl)=C(Cl)C2(Cl)C1(Cl)Cl (stereo not drawn)            TRUE
 2                           NNC(=O)c1ccccc1           FALSE
 3  ClC1=C(Cl)[C@]2(Cl)[C@@H]3[C@@H](Cl)[C@H](Cl)C[C@@H]3[C@@]1(Cl)C2(Cl)Cl           FALSE
 4  COc1ccc(OC)c(CC(C)N)c1 (stereo not drawn)           FALSE
 5  CC(C)[C@H](C(=O)OC(C#N)c1cccc(Oc2ccccc2)c1)c1ccc(OC(F)F)cc1 (stereo partly drawn)           FALSE
 6       ClC(Cl)=C(c1ccc(Cl)cc1)c1ccc(Cl)cc1           FALSE
 7  CCCN(CC)CC1COC2(CCC(C(C)(C)C)CC2)O1 (stereo not drawn)           FALSE
 8                                CSCCCN=C=S           FALSE
 9        c1ccc2cc3c(cc2c1)-c1cccc2cccc-3c12           FALSE
10                 COc1ccc([N+](=O)[O-])cc1O           FALSE
11                                    N#CCCO           FALSE
12                CCOP(=S)(OCC)SCS(=O)(=O)CC           FALSE

* * *

# Measured on: Thyrotropin-releasing hormone receptor (Homo sapiens) (UniProt P34981)
# Sequence (P34981 whole entry, looked up): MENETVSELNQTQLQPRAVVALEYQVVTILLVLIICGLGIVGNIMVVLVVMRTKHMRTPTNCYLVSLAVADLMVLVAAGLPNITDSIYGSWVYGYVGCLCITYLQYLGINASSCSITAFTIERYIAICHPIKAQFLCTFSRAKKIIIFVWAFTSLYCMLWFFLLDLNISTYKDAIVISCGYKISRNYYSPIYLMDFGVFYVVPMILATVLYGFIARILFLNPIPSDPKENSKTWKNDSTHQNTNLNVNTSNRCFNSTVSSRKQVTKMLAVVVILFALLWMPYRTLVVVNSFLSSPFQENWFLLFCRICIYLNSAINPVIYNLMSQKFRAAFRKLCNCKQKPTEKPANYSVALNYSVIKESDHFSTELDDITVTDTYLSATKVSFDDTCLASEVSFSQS
# Method summary: qHTS assay to identify small molecule agonists of the thyrotropin-releasing hormone receptor (TRHR) signaling pathway (AID 1346891)
# Condition parameters: TRHR-HEK293 calcium fluorescence, agonist mode; series mostly up to 57.6 µM
Calls of active or inactive are those of the source. Calls come from the whole dose curve.
Outcome codes: active, inactive

Compound	Assigned class
COc1ccc(OC)c(C=O)c1	inactive
O=C(CBr)c1ccc(O)cc1	inactive
CC(C)(C)c1ccc(CSc2cnn(C(C)(C)C)c(=O)c2Cl)cc1	inactive
Cc1cc(SCc2sc(-c3ccc(C(F)(F)F)c(F)c3)nc2C)ccc1OCC(=O)O	inactive
CC(=O)OC1(c2ccccc2)CCN(CCc2ccccc2)CC1	inactive
CC(C)(c1ccc(O)c(-c2ccccc2)c1)c1ccc(O)c(-c2ccccc2)c1	inactive
O=[N+]([O-])c1cc([N+](=O)[O-])c2ccccc2c1	inactive
C[As+](C)(C)CC(=O)[O-]	inactive
CC(c1ccc(O)cc1)c1ccc(O)cc1	inactive
CC1(c2ccc(Oc3ccccc3)cc2)OC(=O)N(Nc2ccccc2)C1=O (stereo not drawn)	inactive
CC1(C)C(/C=C(\Cl)C(F)(F)F)C1C(=O)OC(C#N)c1cccc(Oc2ccccc2)c1 (stereo not drawn)	inactive
O=c1c(C2CC(c3ccc(-c4ccc(Br)cc4)cc3)Cc3ccccc32)c(O)sc2ccccc12 (stereo not drawn)	inactive
Cc1ccc(OP(=O)(Oc2ccccc2)Oc2ccccc2)cc1	inactive
CC(C)OS(C)(=O)=O	inactive
Oc1ccc(C(c2ccc(O)cc2)(C(F)(F)F)C(F)(F)F)cc1	inactive
CCN	inactive
CCCCCCCCCBr	inactive
[CH3][Hg][Cl]	active
CSCCCN=C=S	inactive
CC(O)C#N (stereo not drawn)	inactive
N#C/C=C/C#N	inactive
CC(C)CCCCCOC(=O)c1ccccc1C(=O)OCCCCCC(C)C	inactive
CC(Cl)CN(C)C (stereo not drawn)	inactive
COc1cccc(C(=O)CCN[C@@H](C)[C@H](O)c2ccccc2)c1	inactive
ClC1=C(Cl)[C@]2(Cl)[C@@H]3[C@@H](Cl)[C@@H](Cl)C[C@@H]3[C@@]1(Cl)C2(Cl)Cl	inactive
BrCBr	inactive
Nc1c(Oc2ccccc2)cc(O)c2c1C(=O)c1ccccc1C2=O	inactive
Clc1ccc(CSC(Cn2ccnc2)c2ccc(Cl)cc2Cl)cc1 (stereo not drawn)	inactive
c1cc[c]([Sb]([c]2ccccc2)[c]2ccccc2)cc1	inactive
CC[C@H](C)[C@H]1O[C@]2(C=C[C@@H]1C)C[C@@H]1C[C@@H](C/C=C(\C)[C@@H](O[C@H]3C[C@H](OC)[C@@H](O[C@H]4C[C@H](OC)[C@@H](O)[C@H](C)O4)[C@H](C)O3)[C@@H](C)/C=C/C=C3\CO[C@@H]4[C@H](O)C(C)=C[C@@H](C(=O)O1)[C@]34O)O2	inactive
N#CCCO	inactive
Nc1ccccc1C(=O)OC/C=C/c1ccccc1	inactive
CCCCCCCCCCCCBr	inactive
Clc1ccc(-c2ccc(Cl)c(Cl)c2Cl)c(Cl)c1Cl	inactive
CCOP(=S)(OCC)SCS(=O)(=O)CC	inactive
Cc1ccc(C(=O)Cl)cc1	inactive
Oc1ccc(C2(c3ccc(O)cc3)CCCCC2)cc1	inactive
CCOC(=O)C1(c2ccccc2)CCN(CCC(C#N)(c2ccccc2)c2ccccc2)CC1	inactive
CCOCCOC(C)=O	inactive
N#CSCSC#N	inactive
FC(F)(F)c1cccc(C2=CCN(CCc3ccc4ccccc4c3)CC2)c1	inactive
ClCCN1CCOCC1	inactive
Nc1ccccc1C(=O)Oc1ccc2ccccc2c1	inactive
ClC1=C(Cl)[C@]2(Cl)[C@H]3[C@H]([C@H]4C=C[C@H]3C4)[C@@]1(Cl)C2(Cl)Cl	inactive
COP(=S)(OC)Oc1cc(Cl)c(Br)cc1Cl	inactive
CN(C)CCc1c[nH]c2ccc(O)cc12	inactive
CCc1cc(C)cc(CC)c1-c1c(OC(=O)C(C)(C)C)n2n(c1=O)CCOCC2	inactive
O=C1C=CC(=O)c2ccccc21	inactive
C=CC(=O)N(C)C	inactive
CCOP(=S)(OCC)SCS(=O)(=O)C(C)(C)C	inactive
N#Cc1ccc(O)cc1	inactive
C=CCOC(N)=O	inactive
C=CC(=O)OCCCCOC(=O)C=C	inactive

* * *

# Method summary: qHTS assay for small molecule disruptors of the mitochondrial membrane potential (AID 720635)
# Condition parameters: HepG2 mitochondrial membrane potential, Mito-MPS dye ratio; series mostly up to 83.2 µM
Records with an inconclusive call do not appear. Activity calls are given as the source filed them. Calls follow the shape of the dose curve; as a rule, active = well fitted inhibition curve with a large enough effect in the signal ratio in the repeat runs; inconclusive = weak or mixed curves, or effect the other way; inactive = flat fitted curve, though single readings scatter; the % refers to the signal ratio.
Outcome codes: class 1 (active), class 0 (inactive)

                                   molecule  assigned_class
0  CC(C)(C)C(O)/C(=C\c1ccc(Cl)cc1Cl)n1cncn1 (stereo not given)         class 1
1  C[C@@H]1O[C@@H](O[C@@H]2C=C3CC[C@@H]4[C@H](CC[C@]5(C)[C@@H](c6ccc(=O)oc6)CC[C@]45O)[C@@]3(C)CC2)[C@H](O)[C@H](O)[C@H]1O         class 1
2  CC(C)OC(=O)C(O)(c1ccc(Cl)cc1)c1ccc(Cl)cc1         class 1
3     N#CCCC(Br)(C#N)CBr (stereo not given)         class 1
4         Oc1ccc(C(=C(Cl)Cl)c2ccc(O)cc2)cc1         class 1
5             Nc1ccc(Cc2ccc(N)c(Cl)c2)cc1Cl         class 1
6  CC(C)[C@H](C(=O)OC(C#N)c1cccc(Oc2ccccc2)c1)c1ccc(OC(F)F)cc1 (stereo not given in full)         class 1
7             Nc1ccccc1C(=O)Oc1ccc2ccccc2c1         class 1
8                                       CCN         class 0
9               CCCCCCCCCCCCCCCC[n+]1ccccc1         class 1

* * *

# Method summary: qHTS assay to identify small molecule agonists of the peroxisome proliferator-activated receptor delta (PPARd) signaling pathway - cell viability counter screen (AID 743211); also: nearly all actives have a fitted effect of over 55% in size
# Condition parameters: PPARd-bla HEK293H viability, CellTiter-Glo luminescence, 17 h; series mostly up to 62.6 µM
Records with an inconclusive call do not appear. Active and inactive are the calls of the source. Calls come from the whole dose curve; as a rule, active = well fitted cell-killing curve with a large enough effect in the repeat runs; inconclusive = weak or mixed curves; inactive = no such curve, though single readings can be large or run the other way.
Outcome codes: 1 for active, 0 for inactive

Compound	Assigned class
N#CCCC(Br)(C#N)CBr (stereo not drawn)	0
CC(C)[C@H](C(=O)O[C@H](C#N)c1cccc(Oc2ccccc2)c1)c1ccc(Cl)cc1	0
NNC(=O)c1ccccc1	0
COC12CC[C@@]3(C[C@@H]1C(C)(O)C(C)(C)C)[C@H]1Cc4ccc(O)c5c4[C@@]3(CCN1CC1CC1)[C@H]2O5 (stereo partly drawn)	1
Oc1cc(Cl)c(Cl)c(Cl)c1	1
CC1(C)C(/C=C(\Cl)C(F)(F)F)C1C(=O)OC(C#N)c1cccc(Oc2ccccc2)c1 (stereo not drawn)	0
O=[N+]([O-])c1cc(C(F)(F)F)c(Cl)c([N+](=O)[O-])c1Cl	1
CN(C)C(=S)[S-].CN(C)C(=S)[S-].[Cu+2]	1
Oc1ccc(C2(c3ccc(O)cc3)CCCCC2)cc1	1
C1CCC2CCCCC2C1 (stereo not drawn)	0
CC1(c2ccc(Oc3ccccc3)cc2)OC(=O)N(Nc2ccccc2)C1=O (stereo not drawn)	1
O=C(CCl)Nc1ccccc1	1
CCC(C)(C)C(=O)OC1=C(c2ccc(Cl)cc2Cl)C(=O)OC12CCCCC2	0
CCOC(=O)OC1=C(c2cc(C)ccc2C)C(=O)NC12CCC(OC)CC2 (stereo not drawn)	0
CCCN(CCC)c1c([N+](=O)[O-])cc(S(N)(=O)=O)cc1[N+](=O)[O-]	1
CC(=O)[O-].CC(=O)[O-].[Hg+2]	1
C[C@H]1O[C@@H](O[C@H]2[C@@H](O)C[C@H](O[C@H]3[C@@H](O)C[C@H](O[C@H]4CC[C@@]5(C)[C@H](CC[C@@H]6[C@@H]5CC[C@]5(C)[C@@H](C7=CC(=O)OC7)CC[C@]65O)C4)O[C@@H]3C)O[C@@H]2C)C[C@H](O)[C@@H]1O	1
O=C(NC(=O)c1c(F)cccc1F)Nc1cc(Cl)c(OC(F)(F)C(F)F)c(Cl)c1	0
CC(C)(C)OO	0
CC(C)OC(=S)S	0
O=C(CCl)C(Cl)Cl	1
CCN(CC)c1c([N+](=O)[O-])cc(C(F)(F)F)c(N)c1[N+](=O)[O-]	0
BrCBr	0
